Test: NCI Yeast Anticancer Drug Screen. Data for the mlh1 rad18 strain (AID 175)
Details: S. cerevisiae mlh1 rad18 strain growth inhibition; at 50.0 µM
The panel holds about 79,000 compounds, 15% with a hit somewhere; the sample as a whole holds those more often. The source made the active and inactive calls. Rule as the data show it: active = growth inhibition above about 70%; inactive = the rest.
Please answer using one outcome listed in t for active, f for inactive

CCCCCC1(C(C)C)C(=O)NC(=O)NC1=O: f

Exercise: Record request — test call for COc1ccccc1NC1=NCCS1
Solution: f

Exercise: What about this compound? COC(=O)c1ccccc1NC(C)=O
Solution: f

Exercise: Entry O=NN1CCCCCCC1C(=O)O (centres undefined) please
Solution: f

Exercise: And what about the compound Nc1cc([N+](=O)[O-])cc([N+](=O)[O-])c1 ?
Solution: f

Exercise: And the next one, Cc1cc(C(C)(C)C)ccc1O ?
Solution: f

Exercise: // query: Cc1ccc(S(=O)(=O)OC2CN3CCC2CC3)cc1 (centres undefined)
Solution: f

Exercise: Query CC1CN=C(Nc2ccc(F)cc2F)S1 (centres undefined) next
Solution: f

---

Test: NCI Yeast Anticancer Drug Screen. Data for the cln2 rad14 strain (AID 165)
Settings: S. cerevisiae cln2 rad14 strain, at 50.0 µM
Compounds without any hit were thinned out: in the full panel of roughly 79,000, 15% have a hit. Calls of active or inactive are those of the source. No stated cut-off is given here; in the data, active means growth inhibition above about 70%; inactive means the rest.
A correct response names exactly one class from T for active, F for inactive

Examples from the recorded data:
CN1CCOP(=O)(Oc2ccccc2)N1 (configuration not stated): F
CN(C)c1ccccc1: F
N#CCCSCCC#N: F
c1cc[c]([Pb]([S]c2ccccn2)([c]2ccccc2)[c]2ccccc2)cc1: T
N#CC1(c2ccccc2)CCN(C2(c3ccccc3)CCCCC2)CC1: F

Exercise: Dear all, I need the recorded test outcome for NC(=O)C(N)C(F)c1ccccc1 (configuration not stated) , thank you.
Solution: F

Exercise: Can you handle O=[N+]([O-])OC(c1ccncc1)C(O[N+](=O)[O-])c1ccncc1 (configuration not stated) next?
Solution: F

---

Assay: NCI Yeast Anticancer Drug Screen. Data for the mec2-1 strain (AID 157)
Conditions: S. cerevisiae mec2-1 strain, at 50.0 µM
This is part of a sample that, as a whole, favours compounds with a hit. Of some 79,000 tested, about 15% had one in any assay. Calls of active or inactive are those of the source. Rule as the data show it: active = growth inhibition above about 70%; inactive = the rest. *1 amine or outer side, *2 acyl side, *3 side chain or, on linkers, in order; H or OH if unused. Where a SMILES comes first, the peptide text is derived from it. Bridges are numbered along the chain shown (N, C = ends). Roman numbers before positions name the chains, in order. [ ]: non-standard residue; d: D form. ξ: configuration not given here. Actinocin(1to9) = Cc1c2oc3c(C)ccc(C(=O)[*:2])c3nc-2c(C(=O)[*:1])c(N)c1=O; ξPhe(4-N(CH2CH2Cl)2) = NC(Cc1ccc(N(CCCl)CCCl)cc1)C(=O)O; NMeV = CN[CH](C(=O)O)C(C)C; Sar = CNCC(=O)O
Classes to choose from: active, inactive

Example entries and their recorded answers appear below.
CC(=O)CCNC1(c2ccccc2)CCCCC1: inactive
CCC(C)C1NC(=O)C(NC(=O)c2c3nc4c(C(=O)NC5C(=O)NC(C(C)C)C(=O)N6CCCC6C(=O)N(C)CC(=O)N(C)C(C(C)C)C(=O)OC5C)ccc(C)c4oc-3c(C)c(=O)c2N)C(C)OC(=O)C(C(C)C)N(C)C(=O)CN(C)C(=O)C2CCCN2C1=O (stereo not given) (I: TIP[Sar][NMeV] / II: TVP[Sar][NMeV]; ester I:1-I:C, II:1-II:C; linker I:N-II:N via Actinocin(1to9); configuration not given here): active

Exercise: Could you check what this test reported for CC(I)C(N)=O (stereo not given) ?
Solution: inactive

Exercise: Another molecule: CC1OC(O[C@@H]2C=C3CC[C@@H]4[C@H](CC[C@]5(C)[C@@H](c6ccc(=O)oc6)CC[C@]45O)[C@@]3(C)CC2)C(O)C(OC2OC(CO)C(O)C(O)C2O)C1O (stereo not given in full)
Solution: inactive

Exercise: CCOC(=O)C(Cc1ccc(N(CCCl)CCCl)cc1)NC(=O)C(Cc1ccccc1)NC(=O)C(NC(=O)CNC(=O)C1CCCN1)C(C)C (stereo not given) (H-PGVF[ξPhe(4-N(CH2CH2Cl)2)]-OEt; configuration not given here) ?
Solution: inactive
